- assay_details: TAR RNA-Tat peptide displacers, HIV-1, primary screen, biochemical, FRET, FAM/TAMRA-labeled Tat (AID 1259389)
- experimental_conditions: HIV-1 TAR RNA, Tat peptide displacement FRET
Screen size: about 100,000 compounds; about 620 (0.62%) were called active. How the source made its calls: active means z-score of 3 or more in at least 2 runs; inactive means the rest. This excerpt belongs to a sample that is enriched for actives.
Respond with a class label; see Y = active, N = inactive

Below are worked cases with known answers.
[[record]]
compound = "CCC(C)NC(=O)c1ccc(CN2C(=O)C(C)=C(c3ccc(C)cc3)S2(=O)=O)cc1 (centres undefined)"
class_label = "N"

[[record]]
compound = "Cc1ccc(-c2ncnc3c(C#N)c4ccccn4c23)cc1"
class_label = "N"

[[record]]
compound = "COc1ccc(N2CSC3=C(C#N)C(c4cccc(Br)c4)CC(=O)N3C2)cc1 (centres undefined)"
class_label = "N"

[[record]]
compound = "CCCc1cc(=O)[nH]c(Nc2cccc(Br)c2)n1"
class_label = "N"

[[record]]
compound = "CCC1Sc2ccc(S(=O)(=O)CCC(=O)NCCc3sccc3C)cc2NC1=O (centres undefined)"
class_label = "N"


Name the outcome recorded for O=C1COc2cc(S(=O)(=O)CCC(=O)N3CCCC3)c(Cl)cc2N1 in the assay.
N

====

- assay_details: TAR RNA-Tat peptide displacers, HIV-1, primary screen, biochemical, FRET, FAM/TAMRA-labeled Tat (AID 1259389)
- experimental_conditions: HIV-1 TAR RNA, Tat peptide displacement FRET; hits give high values
About 620 (0.62%) of roughly 100,000 compounds were called active. Shown is part of a subset that was picked to be rich in actives.
assay_endpoint: z-score
API doc: respond with a numeric literal and nothing else, no unit.

Here's what some known entries look like.
[[record]]
compound = "O=C(NC1CCCCC1)c1ccc(CNc2c(N3CCCC3)c(=O)c2=O)cc1"
assay_endpoint = "z-score"
reported_result = 2.73

[[record]]
compound = "C=CCOC(=O)C1=C(C)NC2=C(C(=O)CC(C)(C)C2)C1c1cc2c(cc1Cl)OCO2 (stereo not given)"
assay_endpoint = "z-score"
reported_result = 0.26

[[record]]
compound = "O=C(NC1CCCC1)c1ccc2c(=O)[nH]c3c(C(=O)NCC4CCCO4)sc(=S)n3c2c1 (stereo not given)"
assay_endpoint = "z-score"
reported_result = 9.34

[[record]]
compound = "CC1CCN(S(=O)(=O)c2ccc3nc(Nc4cc(F)ccc4F)ccc3c2)CC1"
assay_endpoint = "z-score"
reported_result = 1


Moving on to the next compound.
Give the measured z-score of CCOC(=O)c1sc(=S)n2c1[nH]c(=O)c1ccc(C(=O)OC)cc12 .
3.58

====

- assay_details: TAR RNA-Tat peptide displacers, HIV-1, primary screen, biochemical, FRET, FAM/TAMRA-labeled Tat (AID 1259389)
- experimental_conditions: HIV-1 TAR RNA, Tat peptide displacement FRET
In all, about 100,000 compounds went through this assay and about 620 (0.62%) were called active. Rule for the calls: active = z-score of 3 or more in at least 2 runs; inactive = the rest. The list comes from a sample in which actives are over-represented; it also holds close analogues and randomly drawn compounds.
Respond with a class label; see active, inactive

Below are worked cases with known answers.
[[record]]
compound = "CC(C)OCCCNc1c(-c2ccc(C(C)C)cc2)c(=O)c1=O"
class_label = "active"

[[record]]
compound = "CSc1cccc(NC(=O)CSc2nnc(C)n3c2cc2oc(C)cc23)c1"
class_label = "inactive"

[[record]]
compound = "C#CCSc1nc2c(c(=O)[nH]1)C(c1ccc(O)c(O)c1)CC(=O)N2 (configuration not stated)"
class_label = "active"


Name the outcome recorded for COC(=O)c1cccc(N2C(=O)C3C4C=CC(CC4)C3C2=O)c1 (configuration not stated) in the assay.
inactive

Name the outcome recorded for CC(CNc1c(-c2ccc(Cl)cc2)c(=O)c1=O)c1ccccc1 (configuration not stated) in the assay.
inactive

Name the outcome recorded for Cc1ccc2occ(C3Nc4cc(C)c(C)cc4NC4=C3C(=O)CC(C)(C)C4)c(=O)c2c1 (configuration not stated) in the assay.
inactive

Name the outcome recorded for CCCOC(=O)C1=C(C)Nc2nnnn2C1c1cc(Br)ccc1OC (configuration not stated) in the assay.
inactive

====

- assay_details: TAR RNA-Tat peptide displacers, HIV-1, primary screen, biochemical, FRET, FAM/TAMRA-labeled Tat (AID 1259389)
- experimental_conditions: HIV-1 TAR RNA, Tat peptide displacement FRET; hits give high values
Screen size: about 100,000 compounds; about 620 (0.62%) were called active. Only a selection was taken, and actives are over-represented in it overall.
assay_endpoint: z-score
API doc: respond with a numeric literal and nothing else, no unit.

Here's what some known entries look like.
[[record]]
molecule = "Oc1ccc(C2Nc3cccc4cccc(c34)N2)cc1"
assay_endpoint = "z-score"
reported_result = 4.86

[[record]]
molecule = "CCC(C)NC(=O)Cn1c(=O)n(CC2CCC(C(=O)N3CCCC3)CC2)c(=O)c2sccc21 (configuration not stated)"
assay_endpoint = "z-score"
reported_result = 0.29

[[record]]
molecule = "COc1ccc(N2C(=O)C3CCCN3C2c2cccc(OC)c2)cc1 (configuration not stated)"
assay_endpoint = "z-score"
reported_result = -0.15

[[record]]
molecule = "C[C@@H]1O[C@@H](OC[C@H]2O[C@@H](Oc3cc(O)c4c(c3)O[C@H](c3ccc(O)c(O)c3)CC4=O)[C@H](O)[C@@H](O)[C@@H]2O)[C@H](O)[C@H](O)[C@H]1O"
assay_endpoint = "z-score"
reported_result = 3.52

[[record]]
molecule = "Cc1cccc(Nc2nc(-c3ccccc3)cs2)n1"
assay_endpoint = "z-score"
reported_result = 1.14

[[record]]
molecule = "COc1cc(Br)c(CCn2c(=O)[nH]c(=O)c3sc(N)nc32)cc1OC"
assay_endpoint = "z-score"
reported_result = 28.5

[[record]]
molecule = "NC(=O)C1CCN(c2nc3c(S(=O)(=O)c4cccc(Cl)c4)nnn3c3ccsc23)CC1"
assay_endpoint = "z-score"
reported_result = 0.52

[[record]]
molecule = "O=C(CSc1nnc(-c2ccco2)c(-c2ccco2)n1)Nc1ccc(Br)cc1"
assay_endpoint = "z-score"
reported_result = 24.6


Give the measured z-score of Cc1cc2c3c([nH]c2cc1S(=O)(=O)Nc1ccccc1F)CC(C)(C)CC3=O .
0.08

Give the measured z-score of O=c1[nH]c(SCc2ccccc2)nnc1-c1ccccc1 .
-0.2

Give the measured z-score of Oc1ccc(-c2csc(Nc3cccnc3)n2)cc1 .
-0.3

====

- assay_details: TAR RNA-Tat peptide displacers, HIV-1, primary screen, biochemical, FRET, FAM/TAMRA-labeled Tat (AID 1259389)
- experimental_conditions: HIV-1 TAR RNA, Tat peptide displacement FRET
The campaign covered roughly 100,000 compounds. About 620 (0.62%) were called active. Rule for the calls: active = z-score of 3 or more in at least 2 runs; inactive = the rest. What follows is part of a selection rich in actives, with near analogues and random picks from the rest.
Respond with a class label; see class 1 = active, class 0 = inactive

[[record]]
molecule = "Nc1ccc(-c2cc(=O)n3[nH]cnc3n2)cc1"
class_label = "class 1"

[[record]]
molecule = "CCC(C)NC(=O)c1ccc2c(=O)n(C)c3n[nH]c(=O)n3c2c1 (stereo not drawn)"
class_label = "class 0"

[[record]]
molecule = "CC(C)CNc1oc(-c2ccc(S(=O)(=O)N3CCc4ccccc4C3)cc2)nc1C#N"
class_label = "class 0"


Name the outcome recorded for COc1cc(C2OC(c3ccc(Br)cc3)=NN2C(C)=O)ccc1OC(C)=O (stereo not drawn) in the assay.
class 0

Name the outcome recorded for O=C(Nc1nc2nc(-c3ccccc3)cc(=O)n2[nH]1)C1CCCCC1 in the assay.
class 0

Name the outcome recorded for CC1CCCC(NC(=O)C2(C)Cn3c(cc4occc43)C(=O)N2Cc2ccc3c(c2)OCO3)C1C (stereo not drawn) in the assay.
class 1

Name the outcome recorded for CCC(CC)C(=O)Nc1ccc(OCc2cc(=O)n3cccc(C)c3n2)cc1 in the assay.
class 0

Name the outcome recorded for CC(=O)N1N=C(c2cc(C3CC3)nc3ccccc23)OC1c1ccc([N+](=O)[O-])s1 (stereo not drawn) in the assay.
class 0

====

- assay_details: TAR RNA-Tat peptide displacers, HIV-1, primary screen, biochemical, FRET, FAM/TAMRA-labeled Tat (AID 1259389)
- experimental_conditions: HIV-1 TAR RNA, Tat peptide displacement FRET; hits give high values
The whole screen tested about 100,000 compounds, of which about 620 (0.62%) were called active. Shown is part of a subset that was picked to be rich in actives.
# label = 1 (yes) if z-score >= 4 else 0 (no)

Below are worked cases with known answers.
[[record]]
molecule = "Cc1cc2c(cc3c(=O)n(CC(=O)NC4CCCC(C)C4C)ncn32)s1 (stereo not given)"
class_label = "0 (no)"

[[record]]
molecule = "Cc1ccc(Nc2nc(NCc3ccco3)nc3c2cnn3C)c(C)c1"
class_label = "0 (no)"

[[record]]
molecule = "CCc1nc2nc(CSc3nc4ccc(NC(=O)c5ccco5)cc4s3)cc(=O)n2[nH]1"
class_label = "1 (yes)"

[[record]]
molecule = "C=CCc1ccccc1OCc1cc(=O)n2nc(-c3ccc(OC)cc3)sc2n1"
class_label = "0 (no)"


Next molecule, please.
State whether the measured z-score reaches 4, counting equality as reaching it, for Cc1ccsc1CCNC(=O)CCS(=O)(=O)c1ccc2c(c1)CC(C)N2C(=O)C1CC1 (stereo not given)
0 (no)
